System: BV-2
Assay notes: Antiinflammatory activity against LPS-induced mouse BV-2 cells assessed NO production at 1 uM preincubated for 2 hrs followed by LPS-stimulation and measured after 24 hrs by Greiss reagent based assay relative to control
Format: functional
Condition parameters: time 26 hrs
Endpoint name: Activity (%)
One number for each entry, in %.

Example cases with answers are listed next.
Compound | Activity / %
Oc1ccc(CC[C@@H](O)C[C@H](O)CCc2ccc(O)cc2)cc1 [(+)-HANNOKINOL] | 101.9
Oc1ccc(/C=C/c2cc(O)cc(O)c2)cc1 | 67.5
O=C(CCc1ccc(O)cc1)C[C@@H]1O[C@@H](c2ccc(O)cc2)[C@H]2[C@@H]1[C@H](c1ccc(O)cc1)O[C@H]2CC(=O)CCc1ccc(O)cc1 | 100.9
COc1cc(CC[C@@H](O)C[C@H](O)CCc2ccc(O)c(OC)c2)ccc1O | 101.2
COc1cc([C@@H]2O[C@@H](CC(=O)CCc3ccc(O)cc3)[C@@H]3[C@H]2[C@H](CC(=O)CCc2ccc(O)cc2)O[C@H]3c2ccc(O)c(OC)c2)ccc1O | 101.4
COc1cc(CC[C@@H](O)C[C@H](O)CCc2ccc(O)cc2)ccc1O | 99.4

Look up Activity for the entries below, preserving their order.
1. COc1cc([C@@H]2O[C@@H](CC(=O)CCc3ccc(O)cc3)[C@@H]3[C@H]2[C@H](CC(=O)CCc2ccc(O)cc2)O[C@H]3c2ccc(O)cc2)ccc1O
2. COc1cc(/C=C/C=C/C(=O)CCc2ccc(O)cc2)cc(OC)c1O
3. Oc1ccc2cc1Oc1ccc(cc1)CC[C@H](O)C[C@@H](O)CC2 (relative stereo)

1. 99.6
2. 96.8
3. 98.8
